Measured CHI, listed per entry for reference.
assay: Chromatographic hydrophobicity index, logD of the compound; assay type: physicochemical

# molecule, CHI
records = [
    ("C[C@@H]1Cc2c([nH]c3ccccc23)[C@@H](c2cnc(N3CCC(NC4CCN(c5ccc6c(c5)CN(C5CCC(=O)NC5=O)C6=O)CC4)CC3)nc2)N1CC(C)(C)F (stereo partly drawn)", 4.6),
    ("C[C@@H]1Cc2c(n(C)c3ccccc23)[C@@H](c2cnc(N3CCC(CCN4CCN(c5ccc6c(c5)CN(C5CCC(=O)NC5=O)C6=O)CC4)CC3)nc2)N1CC(C)(C)F (mixture of isomers)", 7),
    ("C[C@@H]1Cc2c([nH]c3ccccc23)[C@@H](c2cnc(N3CCC(CN(C)C4CCN(c5ccc6c(c5)CN(C5CCC(=O)NC5=O)C6=O)CC4)CC3)nc2)N1CC(C)(C)F (stereo partly drawn)", 5.6),
]

====

assay: Lipophilicity, logD of the compound at pH 7.4 by shake-flask assay; type: physicochemical; conditions: buffer
observedProperty: logD

# compound, result
rows = [
    ("COc1cc(O[C@H]2C(C)(C)[C@H](NC(=O)c3ccc(N4CCC(CN5CCN(c6ccc(C(=O)N[C@H]7CCC(=O)NC7=O)c(F)c6)CC5)CC4)cc3)C2(C)C)ccc1C#N [LUXDEGALUTAMIDE]", 4.7),
    ("N#Cc1ccc(O[C@H]2CC[C@H](NC(=O)c3ccc(N4CCC(CN5CCN(c6cc7c(cc6F)C(=O)N(C6CCC(=O)NC6=O)C7=O)CC5)CC4)nn3)CC2)cc1Cl (some centres undefined) [BAVDEGALUTAMIDE]", 4.8),
    ("Cn1c(=O)n(C2CCC(=O)NC2=O)c2cccc(C#CCOC3CCN(C[C@H]4CC[C@H](n5cc(NC(=O)c6cnn7ccc(N8C[C@H]9C[C@@H]8CO9)nc67)c(C(F)F)n5)CC4)CC3)c21 (some centres undefined)", 3.6),
    ("O=C1CC[C@H](N2Cc3cc(N4CCN(CC5CCN(c6ccc([C@@H]7c8ccc(O)cc8CC[C@@H]7c7ccccc7)cc6)CC5)CC4)ccc3C2=O)C(=O)N1", 4.6),
]

====

experiment: Dissociation constant, pKa of the compound; assay type: physicochemical

# compound, pKa
measured = [
    ("Cn1c(=O)n(C2CCC(=O)NC2=O)c2cccc(C#CCOC3CCN(C[C@H]4CC[C@H](n5cc(NC(=O)c6cnn7ccc(N8C[C@H]9C[C@@H]8CO9)nc67)c(C(F)F)n5)CC4)CC3)c21 (stereo partly specified)", 8.5),
]

====

Measured CHI, listed per entry for reference.
assay: Chromatographic hydrophobicity index, logD of the compound; format: physicochemical
observedProperty: CHI

# molecule, result
rows = [
    ("Cc1ncsc1-c1ccc([C@H](C)NC(=O)[C@@H]2C[C@@H](O)CN2C(=O)[C@@H](NC(=O)COCCCCCNc2ccc(C(=O)N[C@H]3C(C)(C)[C@H](Oc4ccc(C#N)c(Cl)c4)C3(C)C)cc2)C(C)(C)C)cc1", 5.9),
    ("COc1cc(O[C@H]2C(C)(C)[C@H](NC(=O)c3ccc(N4CCC(CN5CCN(c6ccc(C(=O)N[C@H]7CCC(=O)NC7=O)c(F)c6)CC5)CC4)cc3)C2(C)C)ccc1C#N [LUXDEGALUTAMIDE]", 5),
    ("C[C@@H]1Cc2c([nH]c3ccccc23)[C@@H](c2cnc(N3CCC(CNC4CCN(c5ccc6c(c5)CN(C5CCC(=O)NC5=O)C6=O)CC4)CC3)nc2)N1CC(C)(C)F (stereo partly drawn)", 4.7),
]

====

test: Clearance in C57BL/6 mouse at 1 mg/kg, po measured upto 24 hrs by LC-MS/MS analysis; type: ADME, organism-based; conditions: in vivo
observedProperty: log10 of CL/F (log10 of the value in mL/min/kg)

# compound, log10 of CL/F
measured = [
    ("C[C@@H]1Cc2c([nH]c3ccccc23)[C@@H](c2cnc(N3CCC(CN(C)C4CCN(c5ccc6c(c5)CN(C5CCC(=O)NC5=O)C6=O)CC4)CC3)nc2)N1CC(C)(C)F (stereo partly specified)", 1.29),
    ("COc1cc(O[C@H]2C(C)(C)[C@H](NC(=O)c3ccc(N4CCC(CN5CCN(c6ccc(C(=O)N[C@H]7CCC(=O)NC7=O)c(F)c6)CC5)CC4)cc3)C2(C)C)ccc1C#N [LUXDEGALUTAMIDE]", 0.62),
    ("N#Cc1ccc(O[C@H]2CC[C@H](NC(=O)c3ccc(N4CCC(CN5CCN(c6cc7c(cc6F)C(=O)N(C6CCC(=O)NC6=O)C7=O)CC5)CC4)nn3)CC2)cc1Cl (stereo partly specified) [BAVDEGALUTAMIDE]", 0.59),
    ("C[C@@H]1Cc2c([nH]c3ccccc23)[C@@H](c2cnc(N3CCC(CCN4CCN(c5ccc6c(c5)CN(C5CCC(=O)NC5=O)C6=O)CC4)CC3)nc2)N1CC(C)(C)F (stereo partly specified)", 0.70),
    ("C[C@@H]1Cc2c([nH]c3ccccc23)[C@@H](c2cnc(N3CCC(CN4CCN(c5ccc6c(c5)CN(C5CCC(=O)NC5=O)C6=O)CC4)CC3)nc2)N1CC(C)(C)F (stereo partly specified)", 0.79),
    ("C[C@@H]1Cc2c([nH]c3ccccc23)[C@@H](c2cnc(N3CCC(CNC4CCN(c5ccc6c(c5)CN(C5CCC(=O)NC5=O)C6=O)CC4)CC3)nc2)N1CC(C)(C)F (stereo partly specified)", 1.42),
    ("C[C@@H]1Cc2c(n(C)c3ccccc23)[C@@H](c2cnc(N3CCC(CCN4CCN(c5ccc6c(c5)CN(C5CCC(=O)NC5=O)C6=O)CC4)CC3)nc2)N1CC(C)(C)F (mixture of isomers)", 0.72),
    ("O=C1CC[C@H](N2Cc3cc(N4CCN(CC5CCN(c6ccc([C@@H]7c8ccc(O)cc8CC[C@@H]7c7ccccc7)cc6)CC5)CC4)ccc3C2=O)C(=O)N1 [VEPDEGESTRANT]", 1.54),
    ("Cn1c(=O)n(C2CCC(=O)NC2=O)c2cccc(C#CCOC3CCN(C[C@H]4CC[C@H](n5cc(NC(=O)c6cnn7ccc(N8C[C@H]9C[C@@H]8CO9)nc67)c(C(F)F)n5)CC4)CC3)c21 (stereo partly specified) [KT-474]", 1.23),
    ("C[C@@H]1Cc2c([nH]c3ccccc23)[C@@H](c2cnc(N3CCC(NC4CCN(c5ccc6c(c5)CN(C5CCC(=O)NC5=O)C6=O)CC4)CC3)nc2)N1CC(C)(C)F (stereo partly specified)", 1.71),
    ("Cc1ncsc1-c1ccc([C@H](C)NC(=O)[C@@H]2C[C@@H](O)CN2C(=O)[C@@H](NC(=O)COCCCCCNc2ccc(C(=O)N[C@H]3C(C)(C)[C@H](Oc4ccc(C#N)c(Cl)c4)C3(C)C)cc2)C(C)(C)C)cc1", 0.67),
]

====

assay: Chromatographic hydrophobicity index, logD of the compound; assay type: physicochemical

# compound, CHI
data = [
    ("C[C@@H]1Cc2c([nH]c3ccccc23)[C@@H](c2cnc(N3CCC(CCN4CCN(c5ccc6c(c5)CN(C5CCC(=O)NC5=O)C6=O)CC4)CC3)nc2)N1CC(C)(C)F (stereo not given in full)", 6.1),
    ("O=C1CC[C@H](N2Cc3cc(N4CCN(CC5CCN(c6ccc([C@@H]7c8ccc(O)cc8CC[C@@H]7c7ccccc7)cc6)CC5)CC4)ccc3C2=O)C(=O)N1 [VEPDEGESTRANT]", 5.3),
    ("N#Cc1ccc(O[C@H]2CC[C@H](NC(=O)c3ccc(N4CCC(CN5CCN(c6cc7c(cc6F)C(=O)N(C6CCC(=O)NC6=O)C7=O)CC5)CC4)nn3)CC2)cc1Cl (stereo not given in full) [BAVDEGALUTAMIDE]", 5.1),
    ("Cn1c(=O)n(C2CCC(=O)NC2=O)c2cccc(C#CCOC3CCN(C[C@H]4CC[C@H](n5cc(NC(=O)c6cnn7ccc(N8C[C@H]9C[C@@H]8CO9)nc67)c(C(F)F)n5)CC4)CC3)c21 (stereo not given in full) [KT-474]", 2.3),
    ("C[C@@H]1Cc2c([nH]c3ccccc23)[C@@H](c2cnc(N3CCC(CN4CCN(c5ccc6c(c5)CN(C5CCC(=O)NC5=O)C6=O)CC4)CC3)nc2)N1CC(C)(C)F (stereo not given in full)", 6.1),
]

====

assay: Clearance in Beagle dog at 1 mg/kg, po measured upto 24 hrs by LC-MS/MS analysis; type: ADME, organism-based, Canis lupus familiaris; conditions: in vivo
observedProperty: CL/F

# compound, result
records = [
    ("Cn1c(=O)n(C2CCC(=O)NC2=O)c2cccc(C#CCOC3CCN(C[C@H]4CC[C@H](n5cc(NC(=O)c6cnn7ccc(N8C[C@H]9C[C@@H]8CO9)nc67)c(C(F)F)n5)CC4)CC3)c21 (some centres undefined) [KT-474]", "16 mL/min/kg"),
    ("COc1cc(O[C@H]2C(C)(C)[C@H](NC(=O)c3ccc(N4CCC(CN5CCN(c6ccc(C(=O)N[C@H]7CCC(=O)NC7=O)c(F)c6)CC5)CC4)cc3)C2(C)C)ccc1C#N [LUXDEGALUTAMIDE]", "6.4 mL/min/kg"),
    ("N#Cc1ccc(O[C@H]2CC[C@H](NC(=O)c3ccc(N4CCC(CN5CCN(c6cc7c(cc6F)C(=O)N(C6CCC(=O)NC6=O)C7=O)CC5)CC4)nn3)CC2)cc1Cl (some centres undefined) [BAVDEGALUTAMIDE]", "4.7 mL/min/kg"),
    ("O=C1CC[C@H](N2Cc3cc(N4CCN(CC5CCN(c6ccc([C@@H]7c8ccc(O)cc8CC[C@@H]7c7ccccc7)cc6)CC5)CC4)ccc3C2=O)C(=O)N1 [VEPDEGESTRANT]", "3 mL/min/kg"),
]
